- System: UV4
- Assay remarks: Tested for the product of drug concentration and exposure time required to reduce UV4 cell survival to 10% under hypoxic condition by clonogenic assay
If the reported CT10 equals or exceeds 20 µM·h, assign label 1. If not, assign label 0.

INSERT INTO measurements (smiles, measurement_target, category_label) VALUES
  ('CS(=O)(=O)NS(=O)(=O)c1cc(N(CCCl)CCCl)c([N+](=O)[O-])cc1[N+](=O)[O-]', 'UV4', 'label 1'),
  ('CN(C)CCNC(=O)c1cc(N(CCCl)CCCl)c([N+](=O)[O-])cc1[N+](=O)[O-]', 'UV4', 'label 1'),
  ('O=C(NCCN1CCOCC1)c1cc(N(CCCl)CCCl)c([N+](=O)[O-])cc1[N+](=O)[O-]', 'UV4', 'label 1'),
  ('NC(=S)c1cc(N(CCCl)CCCl)c([N+](=O)[O-])cc1[N+](=O)[O-]', 'UV4', 'label 0'),
  ('O=C(c1cc(N2CC2)c([N+](=O)[O-])cc1[N+](=O)[O-])N1CCOCC1', 'UV4', 'label 1');

* * *

- Assay remarks: Tested for hypersensitivity factor which is the ratio of cytotoxicities against aerobic UV4 cells and chinese hamster ovary fibroblast line AA8
Consider the cut-off 4. If the recorded IC50 ratio is strictly smaller, the label is Met; if not, the label is Not met.

INSERT INTO measurements (molecule, category_label) VALUES
  ('CS(=O)(=O)OCCN(CCCl)c1cc(C(N)=O)c([N+](=O)[O-])cc1[N+](=O)[O-]', 'Not met'),
  ('NC(=O)c1cc(NCCCl)c([N+](=O)[O-])cc1[N+](=O)[O-]', 'Met'),
  ('CCN(CCCl)c1cc(C(=O)NCCN(C)C)c([N+](=O)[O-])cc1[N+](=O)[O-]', 'Met'),
  ('O=C(NCC(O)CO)c1cc(N(CCCl)CCCl)c([N+](=O)[O-])cc1[N+](=O)[O-] (stereo not given)', 'Not met');

* * *

- Assay remarks: Solubility (alpha-MEM culture medium, containing 5% fetal calf serum)
- Format: physicochemical
- Condition label: alpha-MEM culture medium with 5% fetal calf serum; read-out: S
Readout kind: solubility

INSERT INTO results (molecule, readout_kind, measured_result) VALUES
  ('O=C(NCCN1CCOCC1)c1cc(N(CCCl)CCCl)c([N+](=O)[O-])cc1[N+](=O)[O-]', 'solubility', '4.7 mM'),
  ('NC(=O)c1cc(N2CC2)c([N+](=O)[O-])cc1[N+](=O)[O-] [TRETAZICAR]', 'solubility', '7.9 mM'),
  ('NC(=O)c1cc(N(CCBr)CCBr)c([N+](=O)[O-])cc1[N+](=O)[O-]', 'solubility', '0.042 mM'),
  ('O=C(NCC(O)CO)c1cc(N(CCCl)CCCl)c([N+](=O)[O-])cc1[N+](=O)[O-] (centres undefined)', 'solubility', '7.4 mM'),
  ('C[N+](C)([O-])CCNC(=O)c1cc(N(CCCl)CCCl)c([N+](=O)[O-])cc1[N+](=O)[O-]', 'solubility', '> 42 mM'),
  ('CS(=O)(=O)OCCN(CCOS(C)(=O)=O)c1cc(C(N)=O)c([N+](=O)[O-])cc1[N+](=O)[O-]', 'solubility', '0.53 mM'),
  ('N#Cc1cc(N(CCCl)CCCl)c([N+](=O)[O-])cc1[N+](=O)[O-]', 'solubility', '0.12 mM'),
  ('NS(=O)(=O)c1cc(N(CCCl)CCCl)c([N+](=O)[O-])cc1[N+](=O)[O-]', 'solubility', '0.16 mM'),
  ('O=C(O)CCNC(=O)c1cc(N(CCCl)CCCl)c([N+](=O)[O-])cc1[N+](=O)[O-]', 'solubility', '11 mM');
